Values compiled from PubChem BioAssay AID1918993.

Each record here notes measured pIC50.
System: 233499-124-R-J3-PDC complex spheroid growth;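 note: spheroids exposed to agents for seven days before reading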
Assay: Anticancer human tumor 233499-124-R-J3-PDC patient-derived colon adenocarcinoma cell line growth inhibition [AhR]
Conditions: curve of first compound; second compound 0.316 µM
pIC50: −log10 of the molar value.

INSERT INTO measurements (molecule, experimentalresult) VALUES
  ('NS(=O)(=O)OCC1CC(n2ccc3c(NC4CCc5ccccc54)ncnc32)CC1O (centres undefined) + Cc1ccccc1N=Nc1ccc(NC(=O)c2ccnn2C)c(C)c1', 6.35),
  ('Nc1ncn(C2CC(O)C(CO)S2)c(=O)n1 (centres undefined) + Cc1cncc(-c2nc(NCCc3c[nH]c4ccccc34)c3ncn(C(C)C)c3n2)c1', '< 6.52'),
  ('Cn1ncnc1C1c2n[nH]c(=O)c3cc(F)cc(c23)NC1c1ccc(F)cc1 (centres undefined) + CC(CO)NC(=O)c1cc(-c2ccc(Cl)cc2)nn(-c2cnn(C)c2)c1=O', '< 7.00');

Let's switch to this molecule now.
Ask: Provide one value: measured pIC50 of CC(C)c1c(-c2ccccc2)nc2c(C#N)c[nH]n2c1=O + CC(CO)NC(=O)c1cc(-c2ccc(Cl)cc2)nn(-c2cnn(C)c2)c1=O
Reply: < 5.00
